# Tested on: Salmonella typhimurium
# TEST_SUMMARY: Antibacterial activity against Salmonella typhimurium ATCC14028 infected in mouse RAW264.7 cells assessed as reduction in intracellular bacterial growth incubated for 24 hrs in presence of gentamicin by CFU assay
# Format: functional, organism-based, Salmonella enterica subsp. enterica serovar Typhimurium
# MEASUREMENT_CONTEXT: Salmonella enterica, ATCC14028, RAW264.7, 24 h
TEST_READOUT: pEC50
Give bare numbers, as −log10 of the molar value.

## Input // returns reported pEC50 for input `c1ccc2c(c1)N=C(NCCCN1CCCC1)c1ccccc1N2`
## Output 6.42

* * *

# System: Salmonella Typhi
# TEST_SUMMARY: Antibacterial activity against Salmonella Typhi Ty2 infected in mouse RAW264.7 cells assessed as reduction in intracellular bacterial growth incubated for 24 hrs in presence of gentamicin by CFU assay
# MEASUREMENT_CONTEXT: Salmonella enterica, Ty2, RAW264.7, 24 h
TEST_READOUT: pEC50
Give bare numbers, as −log10 of the molar value.

## Input // returns reported pEC50 for input `c1ccc2c(c1)N=C(NCCCN1CCCC1)c1ccccc1N2`
## Output 6.26

* * *

# TEST_SUMMARY: Selectivity ratio of CC50 for cytotoxicity against mouse RAW264.7 cells to EC50 for antibacterial activity against Salmonella typhimurium ATCC14028 infected in mouse RAW264.7 cells
# Assay type: toxicity, cell-based
# MEASUREMENT_CONTEXT: read-out: Ratio CC50/EC50
# label = met if selectivity ratio < 30 else not met

Please review the entries below; each comes with its answer.
Clc1ccc2c(c1)C(NCCN1CCNCC1)=Nc1ccccc1O2
not met
Cc1cc2c(s1)Nc1ccccc1N=C2NCCN1CCNCC1
met
Cc1cc2c(s1)Nc1ccccc1N=C2N1CCN(C)CC1 [OLANZAPINE]
not met
Clc1ccc2c(c1)C(NCCCN1CCCC1)=Nc1cccnc1N2
met
Cc1cc2c(s1)Nc1ccccc1N=C2NCCCN1CCCC1
not met

Pending molecule:
## Input Please determine if `Cc1cc2c(s1)Nc1ccccc1N=C2NCCN(C)C` is below 30 in terms of selectivity ratio.
## Output not met

* * *

# TEST_SUMMARY: Cytotoxicity against mouse RAW264.7 cells assessed as reduction in cell viability incubated for 24 hrs by MTT assay
# Type: toxicity, cell-based
# label = met if CC50 at 24 h < 100 µM else not met

Please review the entries below; each comes with its answer.
Clc1ccc2c(c1)C(NCCN1CCNCC1)=Nc1ccccc1O2
met
Cc1cc2c(s1)Nc1ccccc1N=C2N1CCN(C)CC1
not met
c1ccc2c(c1)N=C(NCCN1CCCCC1)c1ccccc1N2
not met
CN1CCN(C2=Nc3ccccc3Oc3ccc(Cl)cc32)CC1
not met

Pending molecule:
## Input Please determine if `Cc1cc2c(s1)Nc1ccccc1N=C2NCCN1CCCCC1` is below 100 µM in terms of CC50 at 24 h.
## Output met

* * *

# Test system: Salmonella typhimurium
# TEST_SUMMARY: Antibacterial activity against Salmonella typhimurium ATCC14028 infected in human Intestine 407 cells assessed as reduction in intracellular bacterial growth incubated for 24 hrs in presence of gentamicin by CFU assay
# Format: functional, organism-based, Salmonella enterica subsp. enterica serovar Typhimurium
# MEASUREMENT_CONTEXT: Salmonella enterica, ATCC14028, Intestine 407, 24 h
TEST_READOUT: EC50 (nM)
Give bare numbers, in nM.

## Input // returns reported EC50 for input `c1ccc2c(c1)N=C(NCCCN1CCCC1)c1ccccc1N2`
## Output 2490

* * *

# System: Salmonella typhimurium
# TEST_SUMMARY: Antibacterial activity against Salmonella typhimurium ATCC14028 infected in human HCT-116 cells assessed as reduction in intracellular bacterial growth incubated for 24 hrs in presence of gentamicin by CFU assay
# Format: functional, organism-based, Salmonella enterica subsp. enterica serovar Typhimurium
# MEASUREMENT_CONTEXT: Salmonella enterica, ATCC14028, HCT-116, 24 h
TEST_READOUT: EC50 (nM)
Give bare numbers, in nM.

## Input // returns reported EC50 for input `c1ccc2c(c1)N=C(NCCCN1CCCC1)c1ccccc1N2`
## Output 2850

* * *

# TEST_SUMMARY: Cytotoxicity against mouse RAW264.7 cells assessed as reduction in cell viability incubated for 24 hrs by MTT assay
# Assay type: toxicity, cell-based
TEST_READOUT: CC50 at 24 h (µM)
Give bare numbers, in µM.

c1ccc2c(c1)N=C(NCCCN1CCCC1)c1ccccc1N2
109
Clc1ccc2c(c1)C(NCCCN1CCCC1)=Nc1cccnc1N2
101

# next molecule below
## Input // returns reported CC50 at 24 h for input `Cc1cc2c(s1)Nc1ccccc1N=C2NCCN1CCNCC1`
## Output 103

* * *

# TEST_SUMMARY: Cytotoxicity against mouse RAW264.7 cells assessed as reduction in cell viability incubated for 24 hrs by CMFDA and DAPI staining based high-content screening method
# Format: toxicity
TEST_READOUT: CC50 at 24 h (µM)
Numbers only, in µM.

## Input // returns reported CC50 at 24 h for input `c1ccc2c(c1)N=C(NCCCN1CCCC1)c1ccccc1N2`
## Output 92.5

* * *

Field: selectivity ratio. Provide a value for each of the compounds that follow.
# TEST_SUMMARY: Selectivity ratio of CC50 for cytotoxicity against mouse RAW264.7 cells to EC50 for antibacterial activity against Salmonella typhimurium ATCC14028 infected in mouse RAW264.7 cells
# Assay type: toxicity, cell-based
# MEASUREMENT_CONTEXT: read-out: Ratio CC50/EC50
Numbers only.

Example compounds with recorded selectivity ratio:
c1ccc2c(c1)N=C(NCCN1CCCCC1)c1ccccc1N2
29.8
CN(C)CCNC1=Nc2ccccc2Nc2ccccc21
19.7

Look up selectivity ratio for the entries below, preserving their order.
1. Clc1ccc2c(c1)C(NCCN1CCCCC1)=Nc1cccnc1N2
2. CN1CCN(C2=Nc3ccccc3Oc3ccc(Cl)cc32)CC1
3. c1ccc2c(c1)N=C(NCCCN1CCCC1)c1ccccc1N2

## Output
10.9
19.1
272

* * *

# TEST_SUMMARY: Cytotoxicity against mouse RAW264.7 cells assessed as reduction in cell viability incubated for 24 hrs by MTT assay
# Assay type: toxicity, cell-based
Field: CC50 at 24 h. Provide a value for each of the compounds that follow.
Give bare numbers, in µM.

Look up CC50 at 24 h for the entries below, preserving their order.
1. CN(C)CCNC1=Nc2cccnc2Nc2ccc(Cl)cc21
2. Cc1cc2c(s1)Nc1ccccc1N=C2NCCCN1CCCC1
3. Cc1cc2c(s1)Nc1ccccc1N=C2NCCN(C)C
4. Clc1ccc2c(c1)C(NCCN1CCNCC1)=Nc1cccnc1N2

## Output
1. 159
2. 76.8
3. 126
4. 123

* * *

# TEST_SUMMARY: Selectivity ratio of CC50 for cytotoxicity against mouse RAW264.7 cells to EC50 for antibacterial activity against Salmonella typhimurium ATCC14028 infected in mouse RAW264.7 cells
# Assay type: toxicity, cell-based
# MEASUREMENT_CONTEXT: read-out: Ratio CC50/EC50
Field: selectivity ratio. Provide a value for each of the compounds that follow.
Numbers only.

Example compounds with recorded selectivity ratio:
Clc1ccc2c(c1)C(NCCN1CCNCC1)=Nc1cccnc1N2
13.9
CN(C)CCNC1=Nc2cccnc2Nc2ccc(Cl)cc21
26.1

# next compound below
## Input // returns reported selectivity ratio for input `Cc1cc2c(s1)Nc1ccccc1N=C2NCCN1CCCCC1`
## Output 16.5

* * *

# TEST_SUMMARY: Cytotoxicity against mouse RAW264.7 cells assessed as reduction in cell viability incubated for 24 hrs by MTT assay
# Assay type: toxicity, cell-based
TEST_READOUT: CC50 at 24 h (µM)
Answers are plain numbers, in µM.

c1ccc2c(c1)N=C(NCCN1CCNCC1)c1ccccc1N2
128
CN(C)CCNC1=Nc2ccccc2Nc2ccccc21
299

# next compound below
## Input // returns reported CC50 at 24 h for input `Clc1ccc2c(c1)C(NCCN1CCCCC1)=Nc1cccnc1N2`
## Output 61.9
